target: UniProtKB P51684; assay: Migration assay (chemotaxis, ChemoTX); conditions: hCCR6-transfected Ba/F3 cells in human serum, migration to recombinant human CCL20 10 nM, 37° C. 45 minutes; read-out: Potency (IC50 value in the migration assay)
Hi there, I'd appreciate the recorded IC50 for every entry that follows.

Notebook entry, UniProtKB P51684 assay: IC50 of "COc1nccc(-c2ccc(S(=O)(=O)N3CC[C@@H](Nc4ccc(C(F)(F)F)cn4)[C@@H](O)C3)cc2)c1C" = ? < 1 nM

Write down the reported IC50 of "NC(=O)c1cc(-c2ccc(S(=O)(=O)N3CC[C@@H](Nc4ccc(C(F)(F)F)cn4)[C@@H](O)C3)cc2)cnc1O" , test system: UniProtKB P51684. < 1 nM

Lab note: need IC50 for "Cc1c[nH]c(-c2cc(-c3ccc(S(=O)(=O)N4CC[C@@H](Nc5ccc(C(F)(F)F)cn5)[C@@H](O)C4)cc3)ccn2)n1" on UniProtKB P51684, anyone have it? 1 to 10 nM

Param readout= IC50; system= UniProtKB P51684; entry= "N[C@H]1C[C@H](Nc2ccc(-c3ccc(S(=O)(=O)N4CC[C@@H](Nc5ccc(C(F)(F)F)cn5)[C@@H](O)C4)cc3)cn2)C1" ; returns value. < 1 nM

Find the measured IC50: item "O=S(=O)(c1ccc(-c2ccc3[nH]ncc3c2)cc1)N1CC[C@@H](Nc2ccc(C(F)(F)F)cn2)[C@@H](O)C1" , target or system UniProtKB P51684. < 1 nM

Missing value: IC50, UniProtKB P51684, entry "Cc1cc(-c2ccc(S(=O)(=O)N3CC[C@@H](Nc4ccc(C(F)(F)F)cn4)[C@@H](O)C3)cc2)cc(C(N)=O)n1" . Fill in? < 1 nM

Hi! What's the reported IC50 for "CN(C)c1cc(-c2ccc(S(=O)(=O)N3CC[C@@H](Nc4ccc(C(F)(F)F)cn4)[C@@H](O)C3)cc2)ccn1" on UniProtKB P51684? 1 to 10 nM

Param readout= IC50; system= UniProtKB P51684; entry= "Cc1nc2[nH]ccc2c(C)c1-c1ccc(S(=O)(=O)N2CC[C@@H](Nc3ccc(C(F)(F)F)cn3)[C@@H](O)C2)cc1" ; returns value. < 1 nM

Lookup: IC50 / UniProtKB P51684 / "O=C(NO)c1cc(-c2ccc(S(=O)(=O)N3CC[C@@H](Nc4ccc(C(F)(F)F)cn4)[C@@H](O)C3)cc2)ccn1" 1 to 10 nM

Write down the reported IC50 of "Cn1nc(N)c2cc(-c3ccc(S(=O)(=O)N4CC[C@@H](Nc5ccc(C(F)(F)F)cn5)[C@@H](O)C4)cc3)ccc21" , test system: UniProtKB P51684. < 1 nM

Form field - read-out: IC50; system: UniProtKB P51684; submitted item: "N#Cc1cnccc1-c1ccc(S(=O)(=O)N2CC[C@@H](Nc3ccc(C(F)(F)F)cn3)[C@@H](O)C2)cc1" 1 to 10 nM

Notebook entry, UniProtKB P51684 assay: IC50 of "O=S(=O)(c1ccc(-c2ccnc(N3CC4(CNC4)C3)c2)cc1)N1CC[C@@H](Nc2ccc(C(F)(F)F)cn2)[C@@H](O)C1" = ? 1 to 10 nM

Lab note: need IC50 with UniProtKB P51684 for entry "N[C@H]1C[C@H](Nc2cc(-c3ccc(S(=O)(=O)N4CC[C@@H](Nc5ccc(C(F)(F)F)cn5)[C@@H](O)C4)cc3)ccn2)C1" , please look it up. < 1 nM

IC50 of "COc1cc(-c2ccc(S(=O)(=O)N3CC[C@@H](Nc4ccc(C(F)(F)F)cn4)[C@@H](O)C3)cc2)cc(C(N)=O)n1" on UniProtKB P51684? < 1 nM

Recorded IC50 for "Cc1cc2[nH]ncc2cc1-c1ccc(S(=O)(=O)N2CC[C@@H](Nc3ccc(C(F)(F)F)cn3)[C@@H](O)C2)cc1" with UniProtKB P51684, please? 1 to 10 nM

Missing value: IC50, UniProtKB P51684, entry "O=S(=O)(c1ccc(-c2cc(F)c3[nH]ncc3c2)cc1)N1CC[C@@H](Nc2ccc(C(F)(F)F)cn2)[C@@H](O)C1" . Fill in? < 1 nM

# query: IC50 | item "Cc1ccnc(C)c1-c1ccc(S(=O)(=O)N2CC[C@@H](Nc3ccc(C(F)(F)F)cn3)[C@@H](O)C2)cc1" | system: UniProtKB P51684 < 1 nM

====

biological target: human CCR6 (Homo sapiens, UniProt P51684); assay: Migration assay (chemotaxis, ChemoTX); settings: hCCR6-transfected Ba/F3 cells in human serum, migration to recombinant human CCL20 10 nM, 37° C. 45 minutes; read-out: Potency (IC50 value in the migration assay)
Sequence (P51684 whole entry): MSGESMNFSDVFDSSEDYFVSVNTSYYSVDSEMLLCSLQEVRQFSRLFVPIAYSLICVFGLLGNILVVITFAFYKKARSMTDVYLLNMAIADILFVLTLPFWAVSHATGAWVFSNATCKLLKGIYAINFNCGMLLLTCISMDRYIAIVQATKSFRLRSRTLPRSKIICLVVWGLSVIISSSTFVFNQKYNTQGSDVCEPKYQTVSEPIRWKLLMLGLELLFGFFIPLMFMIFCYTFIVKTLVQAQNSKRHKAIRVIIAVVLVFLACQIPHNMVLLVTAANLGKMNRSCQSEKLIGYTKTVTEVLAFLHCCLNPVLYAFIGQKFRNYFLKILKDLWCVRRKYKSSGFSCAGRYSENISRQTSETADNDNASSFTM
Assignment: determine reported IC50 for the given compounds.

What value of IC50 has been reported for the following compound? "COc1cc(-c2ccc(S(=O)(=O)N3CC[C@@H](Nc4ccc(C(F)(F)F)cn4)[C@@H](O)C3)cc2)cc(-c2nnc(C)o2)n1" < 1 nM

Tell me the measured IC50 of "NC(=O)c1cc(-c2ccc(S(=O)(=O)N3CC[C@@H](Nc4ccc(C(F)(F)F)cn4)[C@@H](O)C3)cc2)cc(N)n1" , please. < 1 nM

Form field: reported IC50 of "Cc1c(-c2ccc(S(=O)(=O)N3CC[C@@H](Nc4ccc(C(F)(F)F)cn4)[C@@H](O)C3)cc2)cnc2[nH]ccc12" < 1 nM

What value of IC50 has been reported for the following compound? "Cc1cncc(-c2ccc(S(=O)(=O)N3CC[C@@H](Nc4ccc(C(F)(F)F)cn4)[C@@H](O)C3)cc2)c1" < 1 nM

Could you share which IC50 value was measured for "O=C1CN(c2ccc(-c3ccc(S(=O)(=O)N4CC[C@@H](Nc5ccc(C(F)(F)F)cn5)[C@@H](O)C4)cc3)cn2)CCN1" ? < 1 nM

Any idea what IC50 was measured for "Cc1cnccc1-c1ccc(S(=O)(=O)N2CC[C@@H](Nc3ccc(C(F)(F)F)cn3)[C@@H](O)C2)cc1" ? < 1 nM

Report IC50 for "NC(=O)c1cc(-c2ccc(S(=O)(=O)N3CC[C@@H](Nc4ccc(C(F)(F)F)cn4)[C@@H](O)C3)cc2)n[nH]1" please. 1 to 10 nM

Look at this compound and give its reported IC50. "O=S(=O)(c1ccc(-c2ccnc(-c3nnco3)c2)cc1)N1CC[C@@H](Nc2ccc(C(F)(F)F)cn2)[C@@H](O)C1" < 1 nM

IC50 for "O=C1CN(c2cc(-c3ccc(S(=O)(=O)N4CC[C@@H](Nc5ccc(C(F)(F)F)cn5)[C@@H](O)C4)cc3)ccn2)CCN1" ? < 1 nM

Value lookup for IC50; key = "O=C1C[C@H](Nc2cc(-c3ccc(S(=O)(=O)N4CC[C@@H](Nc5ccc(C(F)(F)F)cn5)[C@@H](O)C4)cc3)ccn2)CN1" 1 to 10 nM

I have this compound here, "O=c1[nH]c2cc(-c3ccc(S(=O)(=O)N4CC[C@@H](Nc5ccc(C(F)(F)F)cn5)[C@@H](O)C4)cc3)cnc2[nH]1" , and I need its recorded IC50. < 1 nM

Requested field: IC50. Item: "Cc1nc(-c2cc(-c3ccc(S(=O)(=O)N4CC[C@@H](Nc5ccc(C(F)(F)F)cn5)[C@@H](O)C4)cc3)ccn2)no1" < 1 nM

Entry under review: "Cn1cc(-c2ccc(S(=O)(=O)N3CC[C@@H](Nc4ccc(C(F)(F)F)cn4)[C@@H](O)C3)cc2)nc1C(N)=O" . Reported IC50? 1 to 10 nM

Give its IC50 value. Item: "Cc1nnc(-c2cc(-c3ccc(S(=O)(=O)N4CC[C@@H](Nc5ncc(C(F)(F)F)cc5C)[C@@H](O)C4)cc3)ccn2)o1" < 1 nM
